SYSTEM NAME: GT1a D168A NS3/4A protease (UniProt P27958, D1194A, species not given)
Construct: rows headed: Ki (nM) D168A; Ki D168A; other: D168A variant
Type: biochemical, Hepatitis C virus
DETAILS: read-out: Ki D168A; D168A variant
MEASURED METRIC: log10(Ki) (log10 of the value in nM)
Note: values are log10 of Ki expressed in nM.

Exercise: Need log10(Ki) of "C=C[C@@H]1C[C@]1(NC(=O)[C@@H]1C[C@@H](Oc2nc3cc(OC)ccc3nc2CC)CN1C(=O)[C@@H](NC(=O)OC(C)(C)C)C(C)(C)C)C(=O)NS(=O)(=O)C1CC1" , thanks.
Solution: 2.81

Exercise: Record: C=C[C@@H]1C[C@]1(NC(=O)[C@@H]1C[C@@H](Oc2nc3cc(OC)ccc3nc2C(F)(F)F)CN1C(=O)[C@@H](NC(=O)OC1CCCC1)C(C)(C)C)C(=O)NS(=O)(=O)C1CC1 [Compound 11e]
Solution: 2.85

Exercise: Record: "CCc1nc2ccc(OC)cc2nc1O[C@@H]1C[C@H]2C(=O)N[C@]3(C(=O)NS(=O)(=O)C4CC4)C[C@H]3/C=C\CCCCC[C@H](NC(=O)OC(C)(C)C)C(=O)N2C1"
Solution: 1.96

Exercise: Record: "C=C[C@@H]1C[C@]1(NC(=O)[C@@H]1C[C@@H](Oc2nc3cc(OC)ccc3nc2Cl)CN1C(=O)[C@@H](NC(=O)OC(C)(C)C)C(C)(C)C)C(=O)NS(=O)(=O)C1CC1"
Solution: 2.11

Exercise: Record: C=C[C@@H]1C[C@]1(NC(=O)[C@@H]1C[C@@H](Oc2nc3cc(OC)ccc3nc2C(F)(F)F)CN1C(=O)[C@@H](NC(=O)OC1CCCC1)C(C)(C)C)C(=O)NS(=O)(=O)C1(C)CC1 [Compound 12e]
Solution: 2.71

Exercise: Record: C=C[C@@H]1C[C@]1(NC(=O)[C@@H]1C[C@@H](Oc2nc3cc(OC)ccc3nc2CC)CN1C(=O)[C@@H](NC(=O)OC1CCCC1)C(C)(C)C)C(=O)NS(=O)(=O)C1CC1 [Compound 11a]
Solution: 2.54

Exercise: Record: C=C[C@@H]1C[C@]1(NC(=O)[C@@H]1C[C@@H](Oc2nc3cc(OC)ccc3nc2Cl)CN1C(=O)[C@@H](NC(=O)OC1CCCC1)C(C)(C)C)C(=O)NS(=O)(=O)C1(C)CC1 [Compound 12d]
Solution: 1.71

Exercise: Record: "C=C[C@@H]1C[C@]1(NC(=O)[C@@H]1C[C@@H](Oc2nc3cc(OC)ccc3nc2C(F)(F)F)CN1C(=O)[C@@H](NC(=O)OC(C)(C)C)C(C)(C)C)C(=O)NS(=O)(=O)C1CC1"
Solution: 2.86

Exercise: Record: C=C[C@@H]1C[C@]1(NC(=O)[C@@H]1C[C@@H](Oc2nc3cc(OC)ccc3nc2C(C)C)CN1C(=O)[C@@H](NC(=O)OC1CCCC1)C(C)(C)C)C(=O)NS(=O)(=O)C1(C)CC1 [Compound 12c]
Solution: 3.00

Exercise: Record: C=C[C@@H]1C[C@]1(NC(=O)[C@@H]1C[C@@H](Oc2nc3cc(OC)ccc3nc2C(C)C)CN1C(=O)[C@@H](NC(=O)OC(C)(C)C)C(C)(C)C)C(=O)NS(=O)(=O)C1(C)CC1 [Compound 10c]
Solution: 3.07

Exercise: Record: C=C[C@@H]1C[C@]1(NC(=O)[C@@H]1C[C@@H](Oc2nc3cc(OC)ccc3nc2C(F)(F)F)CN1C(=O)[C@@H](NC(=O)OC(C)(C)C)C(C)(C)C)C(=O)NS(=O)(=O)C1(C)CC1 [Compound 10e]
Solution: 2.71

Exercise: Record: C=C[C@@H]1C[C@]1(NC(=O)[C@@H]1C[C@@H](Oc2nc3cc(OC)ccc3nc2Cl)CN1C(=O)[C@@H](NC(=O)OC1CCCC1)C(C)(C)C)C(=O)NS(=O)(=O)C1CC1 [Compound 11d]
Solution: 2.00

Exercise: Record: C=C[C@@H]1C[C@]1(NC(=O)[C@@H]1C[C@@H](Oc2nc3cc(OC)ccc3nc2C)CN1C(=O)[C@@H](NC(=O)OC1CCCC1)C(C)(C)C)C(=O)NS(=O)(=O)C1CC1 [Compound 11b]
Solution: 2.16

Exercise: Record: C=C[C@@H]1C[C@]1(NC(=O)[C@@H]1C[C@@H](Oc2nc3cc(OC)ccc3nc2Cl)CN1C(=O)[C@@H](NC(=O)OC(C)(C)C)C(C)(C)C)C(=O)NS(=O)(=O)C1(C)CC1 [Compound 10d]
Solution: 2.08

Exercise: Record: C=C[C@@H]1C[C@]1(NC(=O)[C@@H]1C[C@@H](Oc2nc3cc(OC)ccc3nc2C)CN1C(=O)[C@@H](NC(=O)OC1CCCC1)C(C)(C)C)C(=O)NS(=O)(=O)C1(C)CC1 [Compound 12b]
Solution: 2.15

Exercise: Record: C=C[C@@H]1C[C@]1(NC(=O)[C@@H]1C[C@@H](Oc2nc3cc(OC)ccc3nc2CC)CN1C(=O)[C@@H](NC(=O)OC(C)(C)C)C(C)(C)C)C(=O)NS(=O)(=O)C1(C)CC1 [Compound 10a]
Solution: 2.59
